For each of the compounds below, state its normalised viability.
# Tested on: DU-4475
# experiment description: normalised viability (% of control), CellTiter-Blue; higher = more viable cells (about 100 = DMSO control)
# condition summary: incubation time: 72 h
Express it in %; write the number only.

query: Give the value of normalised viability reported for the following: CCNC(=O)CCC/C=C\C[C@@H]1[C@@H](/C=C/[C@@H](O)CCc2ccccc2)[C@H](O)C[C@@H]1O [Bimatoprost] (550 nM)
result: 104

query: Give the value of normalised viability reported for the following: COc1ccc(S(=O)(=O)Nc2cccnc2Nc2ccc(O)cc2)cc1 [ABT-751] (1000 nM)
result: 66.1

query: Give the value of normalised viability reported for the following: CO[C@@H]1[C@H](N(C)C(=O)c2ccccc2)C[C@H]2O[C@]1(C)n1c3ccccc3c3c4c(c5c6ccccc6n2c5c31)C(=O)NC4 [Midostaurin] (1000 nM)
result: 8.53

query: Give the value of normalised viability reported for the following: Cn1cc(C2=C(c3cn(C4CCN(Cc5ccccn5)CC4)c4ccccc34)C(=O)NC2=O)c2ccccc21 [Enzastaurin] (1000 nM)
result: 91.7

----------
# System: HDQ-P1
# experiment description: normalised viability (% of control), CellTiter-Blue; higher = more viable cells (about 100 = DMSO control)
# condition summary: incubation time: 72 h
# note: boundary value 40% maps to false; normalised viability below it maps to true

query: # strict comparison: is reported normalised viability < 40%? input = CC(O)(CS(=O)(=O)c1ccc(F)cc1)C(=O)Nc1ccc(C#N)c(C(F)(F)F)c1 (centres undefined) [Bicalutamide] (10000 nM)
result: false

query: # strict comparison: is reported normalised viability < 40%? input = CNC(=O)c1ccccc1Sc1ccc2c(/C=C/c3ccccn3)n[nH]c2c1 [Axitinib] (10000 nM)
result: false

query: # strict comparison: is reported normalised viability < 40%? input = COc1ccc(S(=O)(=O)Nc2cccnc2Nc2ccc(O)cc2)cc1 [ABT-751] (10000 nM)
result: true

query: # strict comparison: is reported normalised viability < 40%? input = CCNC(=O)c1noc(-c2cc(C(C)C)c(O)cc2O)c1-c1ccc(CN2CCOCC2)cc1 [NVP-AUY922] (1000 nM)
result: true

query: # strict comparison: is reported normalised viability < 40%? input = COc1cc(Nc2c(C#N)cnc3cc(OCCCN4CCN(C)CC4)c(OC)cc23)c(Cl)cc1Cl [Bosutinib] (10000 nM)
result: true

query: # strict comparison: is reported normalised viability < 40%? input = Nc1ccn([C@@H]2O[C@H](CO)[C@@H](O)C2(F)F)c(=O)n1 [Gemcitabine] (1000 nM)
result: false

query: # strict comparison: is reported normalised viability < 40%? input = CC(=O)[C@]1(O)Cc2c(O)c3c(c(O)c2[C@@H](O[C@H]2C[C@H](N)[C@H](O)[C@H](C)O2)C1)C(=O)c1ccccc1C3=O [Idarubicin] (1000 nM)
result: true

query: # strict comparison: is reported normalised viability < 40%? input = C/C(=C\c1csc(C)n1)[C@@H]1C[C@@H]2O[C@]2(C)CCC[C@H](C)[C@H](O)[C@@H](C)C(=O)C(C)(C)[C@@H](O)CC(=O)N1 [Ixabepilone] (1000 nM)
result: true

query: # strict comparison: is reported normalised viability < 40%? input = CN(Cc1cnc2nc(N)nc(N)c2n1)c1ccc(C(=O)N[C@@H](CCC(=O)O)C(=O)O)cc1 [Methotrexate] (10000 nM)
result: false

----------
# System: Hs578T
# experiment description: normalised viability (% of control), CellTiter-Blue; higher = more viable cells (about 100 = DMSO control)
# condition summary: 1000 nM; incubation time: 72 h
# note: boundary value 90% maps to N; normalised viability below it maps to Y

query: # strict comparison: is reported normalised viability < 90%? input = "COc1c2occc2cc2ccc(=O)oc12"
result: N

query: # strict comparison: is reported normalised viability < 90%? input = "Nc1ccn([C@@H]2O[C@H](CO)[C@@H](O)C2(F)F)c(=O)n1"
result: Y

query: # strict comparison: is reported normalised viability < 90%? input = CN(Cc1cnc2nc(N)nc(N)c2n1)c1ccc(C(=O)N[C@@H](CCC(=O)O)C(=O)O)cc1 [Methotrexate]
result: Y

query: # strict comparison: is reported normalised viability < 90%? input = "C=CCn1c(=O)c2cnc(Nc3ccc(N4CCN(C)CC4)cc3)nc2n1-c1cccc(C(C)(C)O)n1"
result: Y

query: # strict comparison: is reported normalised viability < 90%? input = "COc1cc(Nc2c(C#N)cnc3cc(OCCCN4CCN(C)CC4)c(OC)cc23)c(Cl)cc1Cl"
result: N

----------
# Test system: MDA-MB-231
# experiment description: normalised response (% of control), CellTox Green; higher = less cell death (100 = DMSO, 0 = benzethonium chloride kill control)
# condition summary: incubation time: 72 h
For each of the compounds below, state its normalised response.
Express it in %; write the number only.

query: Give the value of normalised response reported for the following: CCN(CC)CCCC(C)Nc1ccnc2cc(Cl)ccc12 (stereo not given) [Chloroquine] (10000 nM)
result: 50.4

query: Give the value of normalised response reported for the following: CCNC(=O)CCC/C=C\C[C@@H]1[C@@H](/C=C/[C@@H](O)CCc2ccccc2)[C@H](O)C[C@@H]1O [Bimatoprost] (55 nM)
result: 99.8

query: Give the value of normalised response reported for the following: CN(Cc1cnc2nc(N)nc(N)c2n1)c1ccc(C(=O)N[C@@H](CCC(=O)O)C(=O)O)cc1 [Methotrexate] (5000 nM)
result: 116

query: Give the value of normalised response reported for the following: O=C(O)CNC(=O)c1c(O)c2ccccc2n(Cc2ccccc2)c1=O [IOX-2] (500 nM)
result: 110

query: Give the value of normalised response reported for the following: Cc1cn(-c2cc(NC(=O)c3ccc(C)c(Nc4nccc(-c5cccnc5)n4)c3)cc(C(F)(F)F)c2)cn1 [Nilotinib] (100 nM)
result: 110

query: Give the value of normalised response reported for the following: O=C(CCCCCCC(=O)Nc1ccccc1)NO [Vorinostat] (1000 nM)
result: 83.2

query: Give the value of normalised response reported for the following: CC(C)n1cnc2c(NCCc3ccc(O)cc3)nc(-c3csc4ccccc34)nc21 [StemRegenin 1] (10000 nM)
result: 100

query: Give the value of normalised response reported for the following: CO[C@@H]1[C@H](N(C)C(=O)c2ccccc2)C[C@H]2O[C@]1(C)n1c3ccccc3c3c4c(c5c6ccccc6n2c5c31)C(=O)NC4 [Midostaurin] (100 nM)
result: 91.2

query: Give the value of normalised response reported for the following: Cc1cc(Nc2nc(N[C@@H](C)c3ncc(F)cn3)ncc2Cl)[nH]n1 [AZD1480] (10 nM)
result: 95.6

query: Give the value of normalised response reported for the following: CC(O)(CS(=O)(=O)c1ccc(F)cc1)C(=O)Nc1ccc(C#N)c(C(F)(F)F)c1 (stereo not given) [Bicalutamide] (100 nM)
result: 110

query: Give the value of normalised response reported for the following: CCn1c(C(=O)N(C2CC2)C2CC2)cc2c3c(ncn3C)c(Nc3cc(C)n(C)n3)nc21 (100 nM)
result: 106

query: Give the value of normalised response reported for the following: CC(C)(C)NC(=O)[C@H]1CC[C@H]2[C@@H]3CC[C@H]4NC(=O)C=C[C@]4(C)[C@H]3CC[C@]12C [Finasteride] (1000 nM)
result: 107

query: Give the value of normalised response reported for the following: CN(Cc1cnc2nc(N)nc(N)c2n1)c1ccc(C(=O)N[C@@H](CCC(=O)O)C(=O)O)cc1 [Methotrexate] (500 nM)
result: 84.1

query: Give the value of normalised response reported for the following: CNC(=O)c1ccccc1Sc1ccc2c(/C=C/c3ccccn3)n[nH]c2c1 [Axitinib] (100 nM)
result: 105

query: Give the value of normalised response reported for the following: CO[C@@]12[C@H](COC(N)=O)C3=C(C(=O)C(C)=C(N)C3=O)N1C[C@@H]1N[C@@H]12 [Mitomycin C] (10000 nM)
result: 101

----------
# System: Hs578T
# experiment description: normalised response (% of control), CellTiter-Glo; higher = more viable cells (100 = DMSO, 0 = benzethonium chloride kill control)
# condition summary: incubation time: 72 h
experimental endpoint: normalised response (%)
Express it in %; write the number only.

query: Give the value of normalised response reported for the following: CCN(CC)CCCC(C)Nc1ccnc2cc(Cl)ccc12 (stereo not given) [Chloroquine] (10000 nM)
result: 97.4

query: Give the value of normalised response reported for the following: C/C(=C\c1csc(C)n1)[C@@H]1C[C@@H]2O[C@]2(C)CCC[C@H](C)[C@H](O)[C@@H](C)C(=O)C(C)(C)[C@@H](O)CC(=O)N1 [Ixabepilone] (100 nM)
result: 104

query: Give the value of normalised response reported for the following: CC[C@H](CO)Nc1nc(NCc2ccccc2)c2ncn(C(C)C)c2n1 [Seliciclib] (1000 nM)
result: 109

query: Give the value of normalised response reported for the following: O=[N+]([O-])c1ccc2c(c1)S(=O)(=O)C=C2 [Stattic] (5000 nM)
result: 29.6

query: Give the value of normalised response reported for the following: CCn1c(C(=O)N(C2CC2)C2CC2)cc2c3c(ncn3C)c(Nc3cc(C)n(C)n3)nc21 (1 nM)
result: 98

query: Give the value of normalised response reported for the following: CNC(=O)c1ccccc1Sc1ccc2c(/C=C/c3ccccn3)n[nH]c2c1 [Axitinib] (1 nM)
result: 98.1

query: Give the value of normalised response reported for the following: CC(=O)[C@]1(O)Cc2c(O)c3c(c(O)c2[C@@H](O[C@H]2C[C@H](N)[C@H](O)[C@H](C)O2)C1)C(=O)c1ccccc1C3=O [Idarubicin] (0.1 nM)
result: 107

query: Give the value of normalised response reported for the following: CO[C@@H]1[C@H](N(C)C(=O)c2ccccc2)C[C@H]2O[C@]1(C)n1c3ccccc3c3c4c(c5c6ccccc6n2c5c31)C(=O)NC4 [Midostaurin] (1 nM)
result: 96.8

query: Give the value of normalised response reported for the following: O=C(O)CNC(=O)c1c(O)c2ccccc2n(Cc2ccccc2)c1=O [IOX-2] (5 nM)
result: 95

query: Give the value of normalised response reported for the following: CC(C)(C)NC(=O)[C@H]1CC[C@H]2[C@@H]3CC[C@H]4NC(=O)C=C[C@]4(C)[C@H]3CC[C@]12C [Finasteride] (10 nM)
result: 101

Values from the supplement of paper PMC4862054
